The origin of these recorded values is patent EP4703359A1.

// reported Emax at 0.1 µM for each item listed
- study target: α2-GABAA receptor (Homo sapiens, UniProt P18507+P47869)
- Construct: expressed in transfected cells
- experimental protocol: Whole-cell patch-clamp electrophysiology, positive allosteric modulatory activity in α2-GABAAR-HEK293 cells
- Type: cell-based
- condition info: compound 100 nM; GABA 0.10 to 0.11 µM (approximately EC7-8); normalized to reference compound CVL-865 (= 100%); read-out: α2-GABAAR Positive allosteric modulatory activity
Only the number, expressed in %, is required.

Look over these answered cases.
structure_smiles=CCCNC(=O)c1nc2c(-c3c(F)cccc3SC)cccn2c1N number=73
structure_smiles=CCCNC(=O)c1nc2c(-c3ccc(F)c(C#N)c3)cccn2c1N number=95
structure_smiles=CCCNC(=O)c1nc2c(OCc3c(F)cccc3OC)cccn2c1N number=35

Enquiry: Please indicate Emax at 0.1 µM recorded for COc1cccc(F)c1-c1cccn2c(N)c(C(=O)NC3CC3)nc12
Return: 65

Enquiry: Please indicate Emax at 0.1 µM recorded for CCCNC(=O)c1nc2c(-c3c(F)cccc3OC)nccn2c1N
Return: 60

###

- study target: α2-GABAA receptor (Homo sapiens, UniProt P18507+P47869)
- Construct: expressed in transfected cells
- experimental protocol: Radioactive ligand (3H-flunitrazepam) competitive binding assay, BZD site of membrane proteins of α2-GABAAR-HEK293 cells
- condition info: read-out: α2 Ki; competition with 1 nM 3H-flunitrazepam; HEK293 membranes expressing α2, β3, γ2 subunits; Ki calculated from IC50
measured endpoint: pKi
In textbook form, pKi equals minus log to base ten of the concentration in mol/L.

Enquiry: Please indicate pKi recorded for CCCNC(=O)c1nc2c(-c3cc(F)ccc3OC)cccn2c1N
Return: 7.59

###

- study target: α2-GABAA receptor (Homo sapiens, UniProt P18507+P47869)
- Construct: expressed in transfected cells
- experimental protocol: Whole-cell patch-clamp electrophysiology, positive allosteric modulatory activity in α2-GABAAR-HEK293 cells
- Type: cell-based
- condition info: compound 100 nM; GABA 0.10 to 0.11 µM (approximately EC7-8); normalized to reference compound CVL-865 (= 100%); read-out: α2-GABAAR Positive allosteric modulatory activity
measured endpoint: Emax at 0.1 µM

compound="CCCNC(=O)c1nc2c(N3CCOCC3C)cccn2c1N (stereo not drawn)" result=44%
compound=CCCNC(=O)c1nc2c(-c3cccc(C)c3F)cccn2c1N result=93%
compound=CCCNC(=O)c1nc2c(-c3cc(F)ccc3F)cccn2c1N result=63%

Enquiry: Please indicate Emax at 0.1 µM recorded for CCCNC(=O)c1nc2c(-c3cccnc3F)c(F)ccn2c1N
Return: 53%

Enquiry: Please indicate Emax at 0.1 µM recorded for CCCNC(=O)c1nc2c(-c3ccnc(C#N)c3)cccn2c1N
Return: 44%

Enquiry: Please indicate Emax at 0.1 µM recorded for CCCNC(=O)c1nc2c(-c3cccc(C)c3)cccn2c1N
Return: 71%

Enquiry: Please indicate Emax at 0.1 µM recorded for CCCNC(=O)c1nc2c(-c3c(F)ccc4ccc(OC)cc34)cccn2c1N
Return: 50%

Enquiry: Please indicate Emax at 0.1 µM recorded for [2H]C([2H])([2H])Oc1cccc(F)c1-c1cccn2c(N)c(C(=O)NCCC)nc12
Return: 77%

Enquiry: Please indicate Emax at 0.1 µM recorded for COc1cccc(F)c1-c1cccn2c(N)c(C(=O)NCCc3ccccc3)nc12
Return: 43%

###

// reported α2-GABAAR Positive allosteric modulatory activity for each item listed
- study target: α2-GABAA receptor (Homo sapiens, UniProt P18507+P47869)
- Construct: expressed in transfected cells
- experimental protocol: Whole-cell patch-clamp electrophysiology, positive allosteric modulatory activity in α2-GABAAR-HEK293 cells
- Assay type: cell-based
- condition info: compound 100 nM; GABA 0.10 to 0.11 µM (approximately EC7-8); normalized to reference compound CVL-865 (= 100%)
Only the number, expressed in %, is required.

Look over these answered cases.
structure_smiles=COc1cccc(F)c1-c1c(F)ccn2c(N)c(C(=O)NCCC(F)(F)F)nc12 study_target="α2-GABAA receptor (Homo sapiens, UniProt P18507+P47869)" unit_spec=% number=70
structure_smiles=[2H]c1ccc(-c2c(F)cccc2OC)c2nc(C(=O)NCCC)c(N)n12 study_target="α2-GABAA receptor (Homo sapiens, UniProt P18507+P47869)" unit_spec=% number=100
structure_smiles=CCCNC(=O)c1nc2c(-c3cc4ncoc4cc3F)cccn2c1N study_target="α2-GABAA receptor (Homo sapiens, UniProt P18507+P47869)" unit_spec=% number=64

Enquiry: Please indicate α2-GABAAR Positive allosteric modulatory activity recorded for CCCNC(=O)c1nc2c(-c3cc(F)c4ocnc4c3)cccn2c1N
Return: 31

Enquiry: Please indicate α2-GABAAR Positive allosteric modulatory activity recorded for CCCNC(=O)c1nc2c(-c3cc(F)cc(C#N)c3)c(F)ccn2c1N
Return: 77

Enquiry: Please indicate α2-GABAAR Positive allosteric modulatory activity recorded for CCCNC(=O)c1nc2c(-c3cc(F)ccc3OC)cccn2c1N
Return: 121

Enquiry: Please indicate α2-GABAAR Positive allosteric modulatory activity recorded for CCCNC(=O)c1nc2c(CC(C)C)c(F)ccn2c1N
Return: 33

Enquiry: Please indicate α2-GABAAR Positive allosteric modulatory activity recorded for [2H]c1cc(-c2c(F)cccc2OC)c2nc(C(=O)NCCC)c(N)n2c1
Return: 84

Enquiry: Please indicate α2-GABAAR Positive allosteric modulatory activity recorded for COc1cccc(F)c1-c1c(F)ccn2c(N)c(C(=O)NCC=C(F)F)nc12
Return: 82

###

- study target: α2-GABAA receptor (Homo sapiens, UniProt P18507+P47869)
- Construct: expressed in transfected cells
- experimental protocol: Radioactive ligand (3H-flunitrazepam) competitive binding assay, BZD site of membrane proteins of α2-GABAAR-HEK293 cells
- condition info: competition with 1 nM 3H-flunitrazepam; HEK293 membranes expressing α2, β3, γ2 subunits; Ki calculated from IC50; read-out: α2 Ki
// reported Ki for each item listed
Only the number, expressed in nM, is required.

Enquiry: # return Ki of CCCNC(=O)c1nc2c(-c3cccc(C#N)c3)cccn2c1N [Example 35] (system: α2-GABAA receptor (Homo sapiens, UniProt P18507+P47869))
Return: 13.3

Enquiry: # return Ki of CCCNC(=O)c1nc2c(-c3c(OC)ccc(F)c3F)cccn2c1N [Example 76] (system: α2-GABAA receptor (Homo sapiens, UniProt P18507+P47869))
Return: 12.9

Enquiry: # return Ki of CCCNC(=O)c1nc2c(-c3c(F)ccc(F)c3OC)cccn2c1N [Example 79] (system: α2-GABAA receptor (Homo sapiens, UniProt P18507+P47869))
Return: 40.1

Enquiry: # return Ki of COc1cccc(F)c1-c1cccn2c(N)c(C(=O)NC3CC(F)(F)C3)nc12 [Example 9] (system: α2-GABAA receptor (Homo sapiens, UniProt P18507+P47869))
Return: 93

Enquiry: # return Ki of COc1cccc(F)c1-c1cccn2c(N)c(C(=O)Nc3cc(C)on3)nc12 [Example 16] (system: α2-GABAA receptor (Homo sapiens, UniProt P18507+P47869))
Return: 19.3

Enquiry: # return Ki of CCCNC(=O)c1nc2c(-c3c(F)cccc3OC)cccn2c1N [Example 3] (system: α2-GABAA receptor (Homo sapiens, UniProt P18507+P47869))
Return: 24

Enquiry: # return Ki of CCCNC(=O)c1nc2c(-c3c(OC)ccc(C)c3F)cccn2c1N [Example 77] (system: α2-GABAA receptor (Homo sapiens, UniProt P18507+P47869))
Return: 5.17

###

// reported Emax at 0.1 µM for each item listed
- study target: α2-GABAA receptor (Homo sapiens, UniProt P18507+P47869)
- Construct: expressed in transfected cells
- experimental protocol: Whole-cell patch-clamp electrophysiology, positive allosteric modulatory activity in α2-GABAAR-HEK293 cells
- Format: cell-based
- condition info: compound 100 nM; GABA 0.10 to 0.11 µM (approximately EC7-8); normalized to reference compound CVL-865 (= 100%); read-out: α2-GABAAR Positive allosteric modulatory activity
Answer by giving the amount and then stating its unit.

Enquiry: Please indicate Emax at 0.1 µM recorded for CCCNC(=O)c1nc2c(-c3cnc(OC)nc3OC)c(F)ccn2c1N
Return: 59%

###

// reported pKi for each item listed
- study target: α2-GABAA receptor (Homo sapiens, UniProt P18507+P47869)
- Construct: expressed in transfected cells
- experimental protocol: Radioactive ligand (3H-flunitrazepam) competitive binding assay, BZD site of membrane proteins of α2-GABAAR-HEK293 cells
- condition info: competition with 1 nM 3H-flunitrazepam; HEK293 membranes expressing α2, β3, γ2 subunits; Ki calculated from IC50; read-out: α2 Ki
In textbook form, pKi equals minus log to base ten of the concentration in mol/L.

Look over these answered cases.
structure_smiles=CCCNC(=O)c1nc2c(-c3cc(C)ccc3F)cccn2c1N measured_endpoint=pKi number=8.40
structure_smiles=CCCNC(=O)c1nc2c(-c3cccc(CCC#N)c3)cccn2c1N measured_endpoint=pKi number=7.47
structure_smiles=CCCNC(=O)c1nc2c(-c3cc4c(cc3OC)N(C)C(=O)CO4)cccn2c1N measured_endpoint=pKi number=7.57
structure_smiles=[2H]c1ccc(OC)c(-c2cccn3c(N)c(C(=O)NCCC)nc23)c1F measured_endpoint=pKi number=7.75

Note: attention shifts to another entry.
Enquiry: Please indicate pKi recorded for COc1cccc(F)c1-c1cccn2c(N)c(C(=O)NCCC(F)(F)F)nc12
Return: 7.54
